# experiment.notes: Inhibition of Acyl coenzyme A:cholesterol acyltransferase (ACAT)
# Set-up: species or system Oryctolagus cuniculus
property.name: IC50 (nM)

Completed entries (count: 5):
{"columns": ["compound", "output.unit", "IC50"],
 "data": [
  ["CCCCCCCCCCCCCCCCCC(=O)Nc1c(OC)cc(OC)cc1OC", "nM", 52],
  ["CCCCCCCCCCCCn1nnc(CS(=O)(=O)Nc2c(C(C)C)cccc2C(C)C)n1", "nM", 22],
  ["CCCCCCCCCCCCn1nnc(C(Cc2ccccc2)S(=O)(=O)Nc2c(C(C)C)cccc2C(C)C)n1 (centres undefined)", "nM", 57],
  ["CCCCCCCCn1nnc(CS(=O)(=O)Nc2c(C(C)C)cccc2C(C)C)n1", "nM", 750],
  ["CCCCCCCCCCCCCCCCCCn1nnc(CS(=O)(=O)Nc2c(C(C)C)cccc2C(C)C)n1", "nM", 7600]
]}

(A) CCCCCCCCCCCCCCn1nnc(CS(=O)(=O)Nc2c(C(C)C)cccc2C(C)C)n1
(B) CCCCCCCCCCCCn1nnnc1CS(=O)(=O)Nc1c(OC)cc(OC)cc1OC
Task: Would you let me know which has the greater IC50 value, A or B ? Output the label that corresponds to your choice.
Result: B
(B: 3700 nM, A: 150 nM)

(a) CCCCCCCCCCCCCCCCn1nnc(CS(=O)(=O)Nc2c(C(C)C)cccc2C(C)C)n1
(b) CCCCCCCCCCCCn1nnc(CS(=O)(=O)Nc2c(OC)cc(OC)cc2OC)n1
Task: Please indicate which entry, a or b , has the lower recorded IC50 value. Output the label that corresponds to your choice.
Result: b
(b: 180 nM, a: 600 nM)

(a) CCCCCCCCCCCCCCCCS(=O)(=O)Nc1c(OC)cc(OC)cc1OC
(b) CCCCCCCCCCCCn1nnc(C(C)S(=O)(=O)Nc2c(C(C)C)cccc2C(C)C)n1 (centres undefined)
Task: Would you let me know which has the greater IC50 value, a or b ? Output the label that corresponds to your choice.
Result: a
(a: 690 nM, b: 32 nM)

(a) CCCCCCCCCCCCn1nnc(CC(=O)Nc2c(C(C)C)cccc2C(C)C)n1
(b) CCCCCCCCCCCCn1nnnc1CS(=O)(=O)Nc1c(C(C)C)cccc1C(C)C
(c) CCCCCCCCCCCCn1nnc(C(C)(C)S(=O)(=O)Nc2c(C(C)C)cccc2C(C)C)n1
Task: // ranking: key=IC50, reverse=True API: response body holds the labels in the requested order.
Result: b, c, a
(b: 1200 nM, c: 40 nM, a: 2.6 nM)

Just for reference, ChEMBL document CHEMBL1128125 is where these values come from.
